Tested on: mouse myoblasts (C2C12)
Assay: Atrophy of mouse myoblasts (C2C12) induced by C26 cell supernatant, myotube diameter by HE staining
Assay type: cell-based
Conditions: Mus musculus; 10 μM, 48 hours treatment, C26 supernatant-induced C2C12 myotubes; read-out: Myotube atrophy reversal rate
I'd appreciate it if you could supply inhibition at 10 µM values for the items below.
One number for each entry, in %.

Use the examples below as a reference point.
>>> reported_value("CN1CCN(C(=O)c2ccc(-c3cnc4[nH]cc(-c5ccnn5C)c4c3)cc2)CC1")
57
>>> reported_value("CCn1nccc1-c1c[nH]c2ncc(-c3ccc(N4CCN(C)CC4)cc3)cc12")
77.1
>>> reported_value("CN1CCN(Cc2ccc(-c3cnc4[nH]cc(-c5ccnn5C)c4c3)cc2)CC1")
109
>>> reported_value("CCN(CC)CCOc1ccc(-c2cnc3[nH]cc(-c4ccnn4C)c3c2)cc1")
84.5
>>> reported_value("Cn1nccc1-c1c[nH]c2ncc(-c3ccc(OCCN4CCCCC4)cc3)cc12")
86.2

With those in mind, consider the next compound.
Query: Note down inhibition at 10 µM recorded for CN1CCN(c2ccc(-c3cnc4[nH]cc(-c5ccnn5C)c4c3)cc2)CC1
Response: 99.8

----------
I'd appreciate it if you could supply IC50 values for the items below.
Molecular target: ActRIIB (Homo sapiens, UniProt Q13705)
Sequence (Q13705 19-512): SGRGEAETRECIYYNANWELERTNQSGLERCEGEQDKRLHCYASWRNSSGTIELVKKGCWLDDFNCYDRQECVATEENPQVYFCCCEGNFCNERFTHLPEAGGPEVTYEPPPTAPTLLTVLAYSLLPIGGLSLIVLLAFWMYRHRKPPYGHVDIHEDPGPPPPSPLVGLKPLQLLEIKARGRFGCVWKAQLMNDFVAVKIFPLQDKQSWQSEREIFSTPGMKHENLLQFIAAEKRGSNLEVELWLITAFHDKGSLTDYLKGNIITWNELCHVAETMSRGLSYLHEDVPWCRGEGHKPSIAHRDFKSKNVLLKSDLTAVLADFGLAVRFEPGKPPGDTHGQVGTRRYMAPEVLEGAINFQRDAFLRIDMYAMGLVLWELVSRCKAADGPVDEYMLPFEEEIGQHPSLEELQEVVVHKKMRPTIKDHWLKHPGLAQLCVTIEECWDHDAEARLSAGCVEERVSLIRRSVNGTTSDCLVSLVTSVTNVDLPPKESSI
Answers are plain numbers, in nM.

Use the examples below as a reference point.
>>> reported_value("Cc1n[nH]cc1-c1c[nH]c2ncc(-c3ccc(N4CCN(C)CC4)cc3)cc12")
58.6
>>> reported_value("CN1CCN(c2ccc(-c3cnc4[nH]cc(-c5cnn(C)c5)c4c3)cc2)CC1")
70.8
>>> reported_value("CN1CCN(c2ccc(-c3cnc4[nH]cc(-c5cn[nH]c5)c4c3)cc2)CC1")
20.4
>>> reported_value("CC(C)n1nccc1-c1c[nH]c2ncc(-c3ccc(N4CCN(C)CC4)cc3)cc12")
2.6

Give me IC50 for each of these compounds, listed below.
1. c1cc(-c2c[nH]c3ncc(-c4ccc(OCCN5CCOCC5)cc4)cc23)n[nH]1
2. Cn1nccc1-c1c[nH]c2ncc(-c3ccc(OCCN4CCCCC4)cc3)cc12
3. Cc1n[nH]c(C)c1-c1c[nH]c2ncc(-c3ccc(N4CCN(C)CC4)cc3)cc12

Response:
1: 4; 2: 12.6; 3: 1.2

Give me IC50 for each of these compounds, listed below.
1. Cn1nccc1-c1c[nH]c2ncc(-c3ccc(N4CCOCC4)cc3)cc12
2. CN1CCN(c2ccc(-c3cnc4[nH]cc(-c5cc[nH]n5)c4c3)cc2)CC1
3. CCN(CC)CCOc1ccc(-c2cnc3[nH]cc(-c4ccnn4C)c3c2)cc1

Response:
[1.86, 1.8, 78.9]

----------
// ActRIIB (Homo sapiens) IC50 records
Answers are plain numbers, in nM.

Use the examples below as a reference point.
>>> reported_value("Cn1nccc1-c1c[nH]c2ncc(-c3ccc(N4CCNCC4)cc3)cc12")
3.61
>>> reported_value("CN1CCN(c2ccc(-c3cnc4[nH]cc(-c5ccncc5)c4c3)cc2)CC1")
59.3
>>> reported_value("CN1CCN(c2ccc(-c3cnc4[nH]cc(-c5cncnc5)c4c3)cc2)CC1")
4.8
>>> reported_value("CN1CCN(c2ccc(-c3cnc4[nH]cc(-c5ccccc5)c4c3)cc2)CC1")
1.2

Query: Note down IC50 recorded for CCn1nccc1-c1c[nH]c2ncc(-c3ccc(N4CCN(C)CC4)cc3)cc12
Response: 4.4
